assay: self-splicing fitness, log relative to wild type (ln ratio); higher = more splicing; Tetrahymena group I intron in knt gene, E. coli kanamycin selection, DiMSum; sequences stand for … in CUCUCU…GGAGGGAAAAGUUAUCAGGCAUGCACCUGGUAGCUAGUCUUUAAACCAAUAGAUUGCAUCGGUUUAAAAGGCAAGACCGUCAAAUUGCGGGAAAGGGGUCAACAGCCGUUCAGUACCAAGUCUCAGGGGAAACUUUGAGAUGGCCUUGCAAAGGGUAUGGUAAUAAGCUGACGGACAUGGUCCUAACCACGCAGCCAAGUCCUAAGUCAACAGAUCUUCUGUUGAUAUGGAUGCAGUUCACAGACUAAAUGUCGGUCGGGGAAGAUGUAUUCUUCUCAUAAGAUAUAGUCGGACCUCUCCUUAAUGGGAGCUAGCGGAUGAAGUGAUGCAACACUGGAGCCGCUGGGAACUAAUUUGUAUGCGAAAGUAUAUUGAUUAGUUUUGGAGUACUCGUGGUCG; conditions: 30 °C;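 note: selection with 25 µg/mL kanamycin versus none on LB agar overnight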
Use Condition met when the recorded self-splicing fitness (ln) is no lower than -1; use Condition not met when it is lower.

{"sequence_text": "GAUUAGCAAUAUUACGUCAU", "category": "Condition not met"}
{"sequence_text": "CUCAAGCAAUAUUACGCUUU", "category": "Condition not met"}
{"sequence_text": "AAAUAGCAAUAUUACGCGCU", "category": "Condition met"}
{"sequence_text": "AUUAAGCAAUAUUACGACCU", "category": "Condition met"}
{"sequence_text": "CGGCAGCAAUAUUACGCCUU", "category": "Condition met"}
{"sequence_text": "GCGCAGCAAUAUUACGAAGC", "category": "Condition not met"}
{"sequence_text": "UACUAGCAAUAUUACGUUAC", "category": "Condition not met"}
{"sequence_text": "GCCGAGCAAUAUUACGCCUG", "category": "Condition not met"}
{"sequence_text": "CAAUAGCAAUAUUACGCCGA", "category": "Condition not met"}
{"sequence_text": "UCGAAGCAAUAUUACGCGUG", "category": "Condition met"}
{"sequence_text": "CAAUAGCAAUAUUACGUUCG", "category": "Condition met"}
{"sequence_text": "GAUAAGCAAUAUUACGAUGA", "category": "Condition met"}
{"sequence_text": "CCUUAGCAAUAUUACGUUUU", "category": "Condition not met"}
{"sequence_text": "AUGAAGCAAUAUUACGUACU", "category": "Condition met"}
{"sequence_text": "UGAAAGCAAUAUUACGUCGG", "category": "Condition not met"}
{"sequence_text": "UGAUAGCAAUAUUACGCCGG", "category": "Condition not met"}

* * *

assay: self-splicing fitness, log relative to wild type (ln ratio); higher = more splicing; Tetrahymena group I intron in knt gene, E. coli kanamycin selection, DiMSum; sequences stand for … in CUCUCU…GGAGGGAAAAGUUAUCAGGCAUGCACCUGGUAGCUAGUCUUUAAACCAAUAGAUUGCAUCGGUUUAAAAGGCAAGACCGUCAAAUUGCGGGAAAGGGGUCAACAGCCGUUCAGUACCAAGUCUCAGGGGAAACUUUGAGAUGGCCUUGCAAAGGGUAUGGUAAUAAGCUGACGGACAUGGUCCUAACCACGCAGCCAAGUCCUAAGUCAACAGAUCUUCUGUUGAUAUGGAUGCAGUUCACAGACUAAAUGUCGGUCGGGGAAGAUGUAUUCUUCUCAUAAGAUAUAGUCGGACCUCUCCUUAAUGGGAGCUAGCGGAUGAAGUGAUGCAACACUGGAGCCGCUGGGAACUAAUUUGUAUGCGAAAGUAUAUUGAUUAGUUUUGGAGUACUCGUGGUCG; settings: 37 °C
Using self-splicing fitness (ln) as the sorting value, the categories are LOW = under -2, MID = from -2 up to -0.3, HIGH = -0.3 and over

{"sequence_text": "GCCAAGCAAUAUUACGCUCC", "category": "HIGH"}
{"sequence_text": "GACAAGCAAUAUUACGAUGU", "category": "MID"}
{"sequence_text": "GCGGAGCAAUAUUACGUUCA", "category": "MID"}
{"sequence_text": "CGUAAGCAAUAUUACGCCUG", "category": "MID"}
{"sequence_text": "GUGCAGCAAUAUUACGGUCU", "category": "HIGH"}
{"sequence_text": "CCUAAGCAAUAUUACGGCGC", "category": "LOW"}
{"sequence_text": "UUAAAGCAAUAUUACGAUCU", "category": "HIGH"}
{"sequence_text": "UUUGAGCAAUAUUACGUCGC", "category": "LOW"}
{"sequence_text": "CGAAAGCAAUAUUACGACGA", "category": "HIGH"}
{"sequence_text": "GUCCAGCAAUAUUACGUCGU", "category": "MID"}
{"sequence_text": "CCCCAGCAAUAUUACGUGUU", "category": "LOW"}
{"sequence_text": "AGAUAGCAAUAUUACGCCCG", "category": "MID"}
{"sequence_text": "CCGAAGCAAUAUUACGGCGU", "category": "LOW"}
{"sequence_text": "GUAAAGCAAUAUUACGGCGU", "category": "HIGH"}
{"sequence_text": "CUCCAGCAAUAUUACGCGAG", "category": "LOW"}
{"sequence_text": "UGAGAGCAAUAUUACGGUGG", "category": "LOW"}

* * *

assay: self-splicing fitness, log relative to wild type (ln ratio); higher = more splicing; Tetrahymena group I intron in knt gene, E. coli kanamycin selection, DiMSum; sequences stand for … in CUCUCU…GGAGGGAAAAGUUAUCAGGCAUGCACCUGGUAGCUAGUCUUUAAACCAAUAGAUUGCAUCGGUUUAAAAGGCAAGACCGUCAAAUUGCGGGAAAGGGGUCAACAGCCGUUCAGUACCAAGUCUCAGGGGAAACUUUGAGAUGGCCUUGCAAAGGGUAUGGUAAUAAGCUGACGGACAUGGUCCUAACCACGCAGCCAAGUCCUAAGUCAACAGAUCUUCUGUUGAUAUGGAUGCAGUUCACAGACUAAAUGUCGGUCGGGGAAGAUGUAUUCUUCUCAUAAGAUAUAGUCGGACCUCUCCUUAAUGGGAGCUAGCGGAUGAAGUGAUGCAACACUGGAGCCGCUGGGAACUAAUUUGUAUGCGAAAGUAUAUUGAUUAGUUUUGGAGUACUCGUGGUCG; settings: 30 °C
Use Criterion met when the recorded self-splicing fitness (ln) is no lower than -3; use Criterion not met when it is lower.

{"sequence_text": "GAGCAGCAAUAUUACGCCCA", "category": "Criterion met"}
{"sequence_text": "CCAGAGCAAUAUUACGCAGC", "category": "Criterion not met"}
{"sequence_text": "UAGAAGCAAUAUUACGUCAA", "category": "Criterion met"}
{"sequence_text": "GGGAAGCAAUAUUACGCAAC", "category": "Criterion not met"}
{"sequence_text": "UACAAGCAAUAUUACGUAUA", "category": "Criterion met"}
{"sequence_text": "UCAAAGCAAUAUUACGCACA", "category": "Criterion met"}
{"sequence_text": "CUAAAGCAAUAUUACGUUUU", "category": "Criterion not met"}
{"sequence_text": "GGUCAGCAAUAUUACGACGA", "category": "Criterion met"}
{"sequence_text": "CUGGAGCAAUAUUACGGGAU", "category": "Criterion not met"}
{"sequence_text": "CAACAGCAAUAUUACGUAGA", "category": "Criterion met"}
{"sequence_text": "CAGUAGCAAUAUUACGGCGC", "category": "Criterion met"}
{"sequence_text": "AAACAGCAAUAUUACGCAAC", "category": "Criterion not met"}
{"sequence_text": "CGUCAGCAAUAUUACGGCAC", "category": "Criterion met"}
{"sequence_text": "UGAUAGCAAUAUUACGGCAA", "category": "Criterion met"}
{"sequence_text": "ACCGAGCAAUAUUACGGUUU", "category": "Criterion not met"}
{"sequence_text": "GGUUAGCAAUAUUACGGGUA", "category": "Criterion met"}
{"sequence_text": "UUUAAGCAAUAUUACGCACA", "category": "Criterion met"}
{"sequence_text": "CCGUAGCAAUAUUACGUGGA", "category": "Criterion not met"}
{"sequence_text": "UAAGAGCAAUAUUACGCUUU", "category": "Criterion met"}
{"sequence_text": "UGACAGCAAUAUUACGAAUG", "category": "Criterion met"}
{"sequence_text": "AAGGAGCAAUAUUACGGCUG", "category": "Criterion met"}
{"sequence_text": "CUCUAGCAAUAUUACGGGAU", "category": "Criterion met"}
{"sequence_text": "UGGAAGCAAUAUUACGGGGU", "category": "Criterion not met"}
{"sequence_text": "GGAAAGCAAUAUUACGGCAC", "category": "Criterion met"}
{"sequence_text": "CUUUAGCAAUAUUACGUAAU", "category": "Criterion met"}
{"sequence_text": "GCUCAGCAAUAUUACGGUCU", "category": "Criterion met"}
{"sequence_text": "AAUAAGCAAUAUUACGCCGG", "category": "Criterion met"}
{"sequence_text": "GUCAAGCAAUAUUACGAUCG", "category": "Criterion not met"}
{"sequence_text": "UUUCAGCAAUAUUACGAUCA", "category": "Criterion met"}
{"sequence_text": "ACCAAGCAAUAUUACGUCAG", "category": "Criterion not met"}
{"sequence_text": "GUCUAGCAAUAUUACGCAAU", "category": "Criterion met"}
{"sequence_text": "ACGUAGCAAUAUUACGCCCA", "category": "Criterion met"}
{"sequence_text": "UAGGAGCAAUAUUACGUACA", "category": "Criterion met"}
